Biological target: pooled human IgG
Would you kindly list Enzyme Activity Endpoint Assay (purified): Fc for each of these proteins?
Answers are plain numbers, in ng/µL.

* PRT-115 (protein) MRNATEAYAKETPKTITSVWTKGVTPPTPEQFRYNGEDVIHAPYLAHQGWYDITKTFDGKDNLLCGAATAGNMLHWWFDQNKTEIERYLKKHPEKQKIIFNNQELFDLKAAIDTKDSQTNSALFNYFRDKAFPNLSARQLGVMPDLVLDMFINGYYLNVTKTQSTDVNRPYQTKDKRGGIFDAVFTRGDQTKLLTARHDLKNKTLNDISTLIKQELTEGKALALSHTYANVSISHVINLWGADFNAEGNLEAIYVTDSDSNASIGMKKYFVGVNAAGKVAISAKKIKGENIGAQVLGLFTLSSGKDIWQKLS | 128

Could you now look at the following protein, please?
In plain terms, PRT-117 (protein) MRNATEAYAKEVPHTITSVWTKGVTPPTPEQFTYQNEDVFHAPYLANQGWYDITKTFNGKDNLLCGAATAGNMLHWWFDQNKEEIERYLSKHPEKQKIIFNNQELFDLKAAIDTKDSQTNSALFNYFRDKAFPNLSARQLGVMPDLVLDMFINGYYLNVFKTQSTDVNRPYQDKDKRGGIFDAVFTRGDQTTLLTARHDLKNKGLNDISDLIKQELTEGKALALSHTYANVSISHVINLWGADFNAEGNLEAIYVTDSDANASIGMKKYFVGVNTAGKVAISAKKIEGENIGAQVLGLFTLSSGKDIWEQLS has a documented Enzyme Activity Endpoint Assay (purified): Fc of 207
